Origin of the recorded values: PubChem BioAssay

Measured GFP response vs DMSO of individual entries
assayDetails: RPL19A-GFP modulators, yeast TOR pathway, confirmation, cell-based, S. cerevisiae, flow cytometry, cherry picks, mother/daughter gates (AID 2270)
conditionInfo: S. cerevisiae RPL19A-GFP strain, 3 h, measured here: mother cell gate, at 10 µM, stronger effect = lower value, 100 = same GFP as DMSO wells
Your answer is read as %, so omit the unit and give the number.

Some solved entries appear below for comparison.
O=C(c1ccc([N+](=O)[O-])o1)N1CCN(c2nc3c(F)cc(F)cc3s2)CC1: 67.5
CC(NCCS(=O)(=O)c1ccc(Cl)cc1)c1cccc(Cl)c1 (stereo unspecified): 94
O=[N+]([O-])c1ccc(-c2cn3nc(-c4ccccc4)c(-c4ccccc4)nc3n2)cc1: 96.2
CS(=O)(=O)Nc1ccc(C2=NN(S(C)(=O)=O)C(c3ccc4c(c3)OCO4)C2)cc1 (stereo unspecified): 99.4
COc1ccccc1N=Nc1ccc(O)c2ncccc12: 101
Cc1cc(=O)n2c3c(sc2n1)C(=O)N(Cc1ccccc1)C3=O: 94
CCCc1[nH]nc2c1C(c1ccc(O)c(OC)c1)C(C#N)=C(N)O2 (stereo unspecified): 103
COc1ccc(Cc2nnc(NC(=O)c3ccccc3F)s2)cc1: 98.5
COc1cccc(OCC(=O)N2CCCc3ccccc32)c1: 97.1
CCOC(=O)c1sc(NC(=O)c2ccc3ncsc3c2)nc1C: 94.8

Shift focus to the following entry.
## Task Quick one: GFP response vs DMSO of COc1ccccc1N1CCN(C(=O)c2ccccc2Oc2ccccc2)CC1 ?
## Result 95.2

###

studySystem: Integrin beta-1 (Homo sapiens) + Integrin alpha-4 (Homo sapiens) (UniProt P13612+P05556)
Sequence (P05556 whole entry, looked up): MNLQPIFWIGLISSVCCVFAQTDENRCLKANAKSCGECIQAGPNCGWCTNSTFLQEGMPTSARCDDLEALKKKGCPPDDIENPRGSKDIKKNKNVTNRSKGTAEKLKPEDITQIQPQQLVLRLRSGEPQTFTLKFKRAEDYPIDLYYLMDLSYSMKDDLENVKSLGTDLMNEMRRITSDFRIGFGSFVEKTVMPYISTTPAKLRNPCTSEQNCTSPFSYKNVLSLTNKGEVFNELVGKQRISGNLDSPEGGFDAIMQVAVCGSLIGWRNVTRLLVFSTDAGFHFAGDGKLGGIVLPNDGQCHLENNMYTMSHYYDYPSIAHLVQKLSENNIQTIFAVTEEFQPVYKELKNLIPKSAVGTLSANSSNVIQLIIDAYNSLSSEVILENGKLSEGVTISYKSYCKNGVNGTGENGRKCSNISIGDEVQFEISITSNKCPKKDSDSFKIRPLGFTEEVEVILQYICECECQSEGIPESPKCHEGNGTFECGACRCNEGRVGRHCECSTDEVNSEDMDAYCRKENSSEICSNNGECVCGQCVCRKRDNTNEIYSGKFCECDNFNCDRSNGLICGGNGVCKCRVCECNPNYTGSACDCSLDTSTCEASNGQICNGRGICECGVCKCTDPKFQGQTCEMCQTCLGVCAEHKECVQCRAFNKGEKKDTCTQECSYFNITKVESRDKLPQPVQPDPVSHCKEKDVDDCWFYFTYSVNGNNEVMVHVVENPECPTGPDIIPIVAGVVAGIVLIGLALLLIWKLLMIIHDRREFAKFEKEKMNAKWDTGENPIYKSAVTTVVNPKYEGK
Sequence (P13612 whole entry, looked up): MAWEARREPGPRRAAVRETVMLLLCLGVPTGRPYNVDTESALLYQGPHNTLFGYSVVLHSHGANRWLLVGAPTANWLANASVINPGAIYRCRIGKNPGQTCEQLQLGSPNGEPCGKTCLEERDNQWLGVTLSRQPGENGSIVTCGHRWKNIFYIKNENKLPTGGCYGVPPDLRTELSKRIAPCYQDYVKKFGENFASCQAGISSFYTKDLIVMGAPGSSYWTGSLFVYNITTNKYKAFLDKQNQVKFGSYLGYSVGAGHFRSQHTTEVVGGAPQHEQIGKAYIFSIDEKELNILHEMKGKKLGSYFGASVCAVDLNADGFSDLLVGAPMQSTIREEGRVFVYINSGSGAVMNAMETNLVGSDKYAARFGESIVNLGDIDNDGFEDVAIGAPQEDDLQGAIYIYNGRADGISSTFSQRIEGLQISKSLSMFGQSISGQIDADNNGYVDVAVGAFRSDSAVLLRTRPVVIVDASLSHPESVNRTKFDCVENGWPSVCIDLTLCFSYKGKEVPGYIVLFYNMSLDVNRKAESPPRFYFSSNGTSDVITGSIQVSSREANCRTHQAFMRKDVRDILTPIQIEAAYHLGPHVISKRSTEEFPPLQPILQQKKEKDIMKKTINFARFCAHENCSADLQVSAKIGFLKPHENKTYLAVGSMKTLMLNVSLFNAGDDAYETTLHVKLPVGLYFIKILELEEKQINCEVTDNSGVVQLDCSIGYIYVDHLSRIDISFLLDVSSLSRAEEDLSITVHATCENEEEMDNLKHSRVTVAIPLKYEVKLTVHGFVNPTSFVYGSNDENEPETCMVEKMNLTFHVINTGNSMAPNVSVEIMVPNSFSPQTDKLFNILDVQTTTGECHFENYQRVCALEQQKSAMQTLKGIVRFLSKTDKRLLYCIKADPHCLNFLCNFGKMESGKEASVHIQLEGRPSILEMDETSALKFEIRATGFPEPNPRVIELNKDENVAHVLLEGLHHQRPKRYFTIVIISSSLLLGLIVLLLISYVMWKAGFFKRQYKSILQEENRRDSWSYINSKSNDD
assayDetails: inhibition of HUTS-21 binding to VLA-4, pilot screen, VLA-4 allosteric modulator project, U937 cells, HUTS-21 mAb, flow cytometry, validation set (AID 2674);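 also: antibody binding induced by the VLA-4 ligand LDV present at three times its Kd; 0% = LDV ligand with antibody and no compound and 100% = antibody without LDV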
conditionInfo: HUTS-21 LIBS mAb binding, at 6.7 µM, stronger effect = higher value, binding induced by LDV ligand
Measured inhibition of individual entries
Your answer is read as %, so omit the unit and give the number.

Some solved entries appear below for comparison.
COCCCC/C(=N\OCCN)c1ccc(C(F)(F)F)cc1: 10
Cc1nc2ccccc2c(=O)n1N: 5.03
COc1cc(OC)c(C2C(C#N)=C(N)OC3=C2C(=O)CC(C)(C)C3)cc1OC (stereo not given): 5.61
CC(=O)c1c(C)[nH]c(C(=O)OCc2ccccc2)c1C: 1.59
CCN(CC)CCOC(=O)C1(C2CCCCC2)CCCCC1: 5.36
Cn1cc(CN(CCO)Cc2cccs2)c(-c2cccc(Cl)c2)n1: -1.79

## Task Form: Entry = Cn1c(=O)[nH]c(=O)c2c1ncn2CCN1CCOCC1 | System = Integrin beta-1 (Homo sapiens) + Integrin alpha-4 (Homo sapiens) (UniProt P13612+P05556) | inhibition = ____
## Result -3.57

## Task Form: Entry = COc1ccc2c(c1)[nH]c1c(=O)n(Cc3ccccn3)cnc12 | System = Integrin beta-1 (Homo sapiens) + Integrin alpha-4 (Homo sapiens) (UniProt P13612+P05556) | inhibition = ____
## Result -1.74

## Task Form: Entry = Cc1ncc([N+](=O)[O-])n1CCO | System = Integrin beta-1 (Homo sapiens) + Integrin alpha-4 (Homo sapiens) (UniProt P13612+P05556) | inhibition = ____
## Result 10

###

assayDetails: RPL19A-GFP modulators, yeast TOR pathway, confirmation, cell-based, S. cerevisiae, flow cytometry, cherry picks, mother/daughter gates (AID 2270)
conditionInfo: S. cerevisiae RPL19A-GFP strain, 3 h, measured here: mother cell gate, at 10 µM, stronger effect = lower value, 100 = same GFP as DMSO wells
valueKind: GFP response vs DMSO (%)
Your answer is read as %, so omit the unit and give the number.

Some solved entries appear below for comparison.
O=C(N/N=C\c1ccc(F)cc1)c1cc(OCC(F)(F)F)ccc1OCC(F)(F)F: 99.2
CC(=O)c1ccc(N2CCN(S(=O)(=O)c3ccc4c(c3)CC(C)N4C(C)=O)CC2)cc1 (stereo unspecified): 91.9
O=C(O)c1cccc(S(=O)(=O)N2Cc3ccccc3C2)c1: 95.9

## Task Quick one: GFP response vs DMSO of CCOC(=O)C1(CCCc2ccccc2)CCN(C(=O)c2cc(C)nn2CC)CC1 ?
## Result 99.8

## Task Quick one: GFP response vs DMSO of Cc1ccc(N2C(=O)c3ccccc3NC2c2ccccc2O)cc1 (stereo unspecified) ?
## Result 98.4

## Task Quick one: GFP response vs DMSO of O=C(O)c1ccc2c3c(ncnc13)-c1ccccc1C2=O ?
## Result 107

## Task Quick one: GFP response vs DMSO of Nc1ccccc1NC(=O)c1ccccc1 ?
## Result 99.8

## Task Quick one: GFP response vs DMSO of Oc1c(Br)cc(Br)cc1C=NCc1ccccc1 ?
## Result 101

###

Measured GFP response vs DMSO of individual entries
assayDetails: RPL19A-GFP modulators, yeast TOR pathway, confirmation, cell-based, S. cerevisiae, flow cytometry, cherry picks, mother/daughter gates (AID 2270)
conditionInfo: S. cerevisiae RPL19A-GFP strain, 3 h, at 10 µM, stronger effect = lower value, 100 = same GFP as DMSO wells
Your answer is read as %, so omit the unit and give the number.

Some solved entries appear below for comparison.
Cc1ccc(C(=O)c2c3ccccc3[n+]([O-])n2CCC(=O)O)cc1: 66.2
C=CCOc1ccc(C(=O)/C=C2/C(=O)Nc3ccccc32)cc1: 97.6
O=C1c2ccsc2SCCN1Cc1c(F)cccc1Cl: 92.8
CCOC(=O)c1ccc(N=Cc2nc(-c3ccccc3)oc2OC(C)=O)cc1: 104
Cc1cc(O)c(C(=O)/C=C/c2c(F)c(F)c(F)c(F)c2F)c(=O)o1: 98.2

## Task Quick one: GFP response vs DMSO of CCNC(=O)c1c(O)c2cccc3c2n(c1=O)CC3 ?
## Result 103

## Task Quick one: GFP response vs DMSO of Cc1ccc(C(c2cc(Cl)c3cccnc3c2O)N2CCN(C)CC2)cc1 (stereo unspecified) ?
## Result 81.4

###

assayDetails: modulators of MEP2-GFP levels in yeast, confirmation, S. cerevisiae, flow cytometry GFP, cherry picks (AID 2272);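 also: ratio of well signal to plate DMSO mean so 100% equals DMSO level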
conditionInfo: S. cerevisiae MEP2-GFP strain, 3 h, at 10 µM, stronger effect = higher value
Measured GFP response vs DMSO of individual entries
Your answer is read as %, so omit the unit and give the number.

Some solved entries appear below for comparison.
COc1ccc2c(c1)C=Cc1ccccc1O2: 98.3
N/C(Cc1ccc(Cl)cc1Cl)=N\OC(=O)c1ccccc1: 125
O=C(NCc1ccccc1)c1nc(S(=O)(=O)Cc2ccccc2)ncc1Cl: 100

## Task Quick one: GFP response vs DMSO of O=c1[nH]c(=O)n([C@H]2C[C@H](O)[C@@H](CO)O2)cc1F ?
## Result 101

## Task Quick one: GFP response vs DMSO of CN(C)c1ccc(N=Cc2nc(-c3ccccc3)oc2OC(=O)c2cccc(Cl)c2)cc1 ?
## Result 100

## Task Quick one: GFP response vs DMSO of CCC(CC)C(=O)Nc1cccc(/C(C)=N/NC(=O)c2ccccc2Cl)c1 ?
## Result 102

###

assayDetails: modulators of CIT2-GFP expression in yeast, confirmation, S. cerevisiae, GFP fusion, cherry picks, mother/daughter gates (AID 2274)
conditionInfo: S. cerevisiae CIT2-GFP strain, flow cytometry, 3 h; measured here: daughter cell gate; at 10 µM; stronger effect = higher value
valueKind: GFP response, % of DMSO (%)
Your answer is read as %, so omit the unit and give the number.

Some solved entries appear below for comparison.
CCOC(=O)c1ccc(NC(=O)CCc2nc(-c3ccc(Cl)cc3)no2)cc1: 105
O=[N+]([O-])c1cccc(/C=N/Nc2ncc(Br)cn2)c1: 86.9
O=C1C(=O)c2ccc(-c3ccccc3)cc2-c2ccccc21: 106
CC(C)(C)C(=O)NC(=S)NNC(=O)c1sc2ccccc2c1Cl: 90.5
Cn1cc(/C=C/c2cc[n+](C)cc2)c2cc(Cl)ccc21: 128

## Task Quick one: GFP response, % of DMSO of CNC(=O)/C(C#N)=C/c1c(N(Cc2ccccc2)Cc2ccccc2)nc2ccccn2c1=O ?
## Result 101

## Task Quick one: GFP response, % of DMSO of CC1CCc2c(C(=O)NCc3cccnc3)csc2C1 (stereo unspecified) ?
## Result 84.8

## Task Quick one: GFP response, % of DMSO of Oc1ccc(COCc2ccccc2)c2cccnc12 ?
## Result 101

## Task Quick one: GFP response, % of DMSO of COc1ccc(-c2nnc(NC(=O)c3ccc([N+](=O)[O-])o3)o2)c(OC)c1 ?
## Result 105

## Task Quick one: GFP response, % of DMSO of CC(=O)Nc1cccc(/C(C)=N/NC(=O)c2ccccc2Cl)c1 ?
## Result 101

## Task Quick one: GFP response, % of DMSO of O=[N+]([O-])c1ccc(N=Nc2c(Cl)cc(O)cc2Cl)cc1 ?
## Result 96.4
